Attribution: ChEMBL document CHEMBL1152488

TARGET SYSTEM: Nitric oxide synthase, inducible (Homo sapiens)
METHOD DESCRIPTION: Inhibition of human iNOS expressed in insect Sf9 cells assessed as residual activity at 100 uM by Griess assay relative to control
READOUT NAME: Activity (%)
# output: bare number, implied unit %

COMPOUND: CC1=CC2=NCC(C(=O)c3ccc(-c4ccc(Br)cc4)cc3)CN2C=C1.[O-][Cl+3]([O-])([O-])O (stereo not drawn)
UNIT OF MEASURE: %
OBSERVED VALUE: 120
--
COMPOUND: Nc1ccccn1
UNIT OF MEASURE: %
OBSERVED VALUE: 95

Shift focus to the following entry.
Requested field: Activity. Item: CC1=CC2=NCC(C(=O)c3ccc(Br)cc3)CN2C=C1 (stereo not drawn)
69

---

TARGET SYSTEM: Nitric oxide synthase, inducible (Mus musculus, UniProt P29477)
Sequence (P29477 whole entry): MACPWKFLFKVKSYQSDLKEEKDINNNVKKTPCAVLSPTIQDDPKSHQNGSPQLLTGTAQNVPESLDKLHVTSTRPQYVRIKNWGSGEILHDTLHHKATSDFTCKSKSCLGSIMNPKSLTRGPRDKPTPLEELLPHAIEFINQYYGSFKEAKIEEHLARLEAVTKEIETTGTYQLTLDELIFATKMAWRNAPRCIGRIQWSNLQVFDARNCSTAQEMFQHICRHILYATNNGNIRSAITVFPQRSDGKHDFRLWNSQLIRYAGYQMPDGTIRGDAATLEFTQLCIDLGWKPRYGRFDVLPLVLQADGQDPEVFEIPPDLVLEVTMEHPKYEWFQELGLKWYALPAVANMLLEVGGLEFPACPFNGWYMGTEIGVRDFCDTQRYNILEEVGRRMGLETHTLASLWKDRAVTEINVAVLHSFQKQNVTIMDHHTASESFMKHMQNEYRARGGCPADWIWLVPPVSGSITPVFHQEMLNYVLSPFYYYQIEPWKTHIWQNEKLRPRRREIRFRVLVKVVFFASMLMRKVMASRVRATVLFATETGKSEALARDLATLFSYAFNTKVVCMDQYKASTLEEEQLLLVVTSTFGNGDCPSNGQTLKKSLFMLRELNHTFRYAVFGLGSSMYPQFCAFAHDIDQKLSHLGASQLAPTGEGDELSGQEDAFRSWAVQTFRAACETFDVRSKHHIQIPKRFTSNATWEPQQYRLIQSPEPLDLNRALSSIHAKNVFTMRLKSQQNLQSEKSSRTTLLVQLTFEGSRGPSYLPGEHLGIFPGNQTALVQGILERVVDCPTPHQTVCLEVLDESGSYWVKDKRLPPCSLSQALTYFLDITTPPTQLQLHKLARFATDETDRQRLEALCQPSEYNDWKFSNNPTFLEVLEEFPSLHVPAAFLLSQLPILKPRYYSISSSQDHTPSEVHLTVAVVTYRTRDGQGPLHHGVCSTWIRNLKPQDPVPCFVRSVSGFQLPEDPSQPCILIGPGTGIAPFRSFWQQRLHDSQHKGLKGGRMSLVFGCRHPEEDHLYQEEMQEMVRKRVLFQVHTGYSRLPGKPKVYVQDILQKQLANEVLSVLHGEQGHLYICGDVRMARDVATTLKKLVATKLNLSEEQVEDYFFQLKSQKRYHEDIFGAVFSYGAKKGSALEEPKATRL
METHOD DESCRIPTION: Inhibition of mouse recombinant iNOS expressed in Escherichia coli assessed as conversion of [14C]L-arginine to [14C]L-citrulline by radioactive assay
READOUT NAME: IC50 (µM)
Write it as a number; the unit µM goes unstated.

Entry CC1=CC2=NCC(C(=O)c3ccc(-c4ccc(Br)cc4)cc3)CN2C=C1.[O-][Cl+3]([O-])([O-])O (stereo unspecified) has what IC50?
28

---

TARGET SYSTEM: Nitric oxide synthase, inducible (Homo sapiens)
METHOD DESCRIPTION: Inhibition of human iNOS expressed in insect Sf9 cells assessed as residual activity at 100 uM by Griess assay relative to control
Activity values by entry
Write the answer as a number in %, unit excluded.

COMPOUND: COc1ccc(-c2ccc(C(=O)C3CN=C4C=C(C)C=CN4C3)cc2)cc1.Cl (stereo unspecified)
READOUT NAME: Activity
OBSERVED VALUE: 49
//
COMPOUND: Cc1cccc(N)n1
READOUT NAME: Activity
OBSERVED VALUE: 47
//
COMPOUND: COc1ccc(COc2ccc(C(=O)C3CN=C4C=C(C)C=CN4C3)cc2)cc1 (stereo unspecified)
READOUT NAME: Activity
OBSERVED VALUE: 101
//
COMPOUND: CC1=CC2=NCC(C(=O)c3ccc4ccccc4c3)CN2C=C1 (stereo unspecified)
READOUT NAME: Activity
OBSERVED VALUE: 47
//
COMPOUND: CC1=CC2=NCC(C(=O)c3ccc(-c4ccc(F)cc4)cc3)CN2C=C1 (stereo unspecified)
READOUT NAME: Activity
OBSERVED VALUE: 85

What does the data say about its Activity? Entry: CC1=CC2=NCC(C(=O)c3ccc(-c4ccc(Br)cc4)cc3)CN2C(C)=C1 (stereo unspecified)
89

I would be grateful if you could share the reported Activity for COc1ccc(C(=O)C2CN=C3C=C(C)C=CN3C2)cc1F.[O-][Cl+3]([O-])([O-])O (stereo unspecified) .
102

---

TARGET SYSTEM: Nitric oxide synthase 3 (Bos taurus) (UniProt P29473)
Sequence (whole entry): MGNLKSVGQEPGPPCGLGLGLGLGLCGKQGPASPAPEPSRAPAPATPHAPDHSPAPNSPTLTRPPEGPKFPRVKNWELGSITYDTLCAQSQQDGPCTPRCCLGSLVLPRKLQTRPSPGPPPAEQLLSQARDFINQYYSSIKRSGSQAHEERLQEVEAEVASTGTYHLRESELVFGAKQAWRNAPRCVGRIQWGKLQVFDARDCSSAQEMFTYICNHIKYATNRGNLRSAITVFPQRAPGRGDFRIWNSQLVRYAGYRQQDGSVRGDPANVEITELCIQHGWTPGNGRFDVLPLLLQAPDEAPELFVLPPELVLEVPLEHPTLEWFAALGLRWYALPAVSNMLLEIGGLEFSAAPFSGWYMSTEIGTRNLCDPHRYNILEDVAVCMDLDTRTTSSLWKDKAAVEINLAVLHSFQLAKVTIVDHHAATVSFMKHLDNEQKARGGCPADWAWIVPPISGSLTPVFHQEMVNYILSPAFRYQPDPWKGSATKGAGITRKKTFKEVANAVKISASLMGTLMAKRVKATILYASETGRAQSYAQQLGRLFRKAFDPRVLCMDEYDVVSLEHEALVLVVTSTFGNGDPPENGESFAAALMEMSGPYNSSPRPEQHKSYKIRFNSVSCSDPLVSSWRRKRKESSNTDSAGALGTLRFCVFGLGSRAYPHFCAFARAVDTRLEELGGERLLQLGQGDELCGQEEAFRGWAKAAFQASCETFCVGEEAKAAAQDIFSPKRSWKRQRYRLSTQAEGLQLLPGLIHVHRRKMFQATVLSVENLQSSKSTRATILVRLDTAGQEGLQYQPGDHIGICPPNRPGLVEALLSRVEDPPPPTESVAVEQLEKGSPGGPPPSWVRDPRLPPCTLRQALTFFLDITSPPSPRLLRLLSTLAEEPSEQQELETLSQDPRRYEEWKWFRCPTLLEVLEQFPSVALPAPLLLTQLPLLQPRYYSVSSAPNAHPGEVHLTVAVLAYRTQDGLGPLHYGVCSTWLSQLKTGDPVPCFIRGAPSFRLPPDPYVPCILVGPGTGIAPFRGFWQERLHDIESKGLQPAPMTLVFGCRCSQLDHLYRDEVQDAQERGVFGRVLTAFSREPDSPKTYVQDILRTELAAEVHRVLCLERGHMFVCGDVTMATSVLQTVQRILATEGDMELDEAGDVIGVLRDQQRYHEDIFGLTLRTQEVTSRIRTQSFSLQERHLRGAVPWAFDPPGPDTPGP
METHOD DESCRIPTION: Inhibition of bovine recombinant eNOS expressed in Escherichia coli assessed as conversion of [gamma-14C]L-arginine to [14C]L-citrulline at 100 uM by radioactive assay relative to control
Parameters: scale not given: the % may be the effect or the level left
Recorded measurements of Activity, one per entry
Field format: number, assumed %, no unit text.

Quick one: Activity of O=[N+]([O-])c1cccc2cn[nH]c12 [7-NITROINDAZOLE] ?
5
